From: patent US9409868B2

Molecular target: ROCK2 (Homo sapiens (Human), UniProt O75116)
Experiment: Z-Lyte FRET kinase assay, ROCK2
Format: biochemical
pIC50: −log10 of the molar value.
Entries and their pIC50 values follow.
PROPERTY_MEASURED: pIC50

In [3]: df
Out[3]:
                                   compound  property_measured  readout_value
0  O=C(NCC(O)c1ccccc1)Nc1ccc2[nH]ncc2c1 (centres unmarked)              pIC50           5.82
1                         Nc1ccc2[nH]ncc2c1              pIC50           3.92

###

Target: UniProtKB O75116
Test: Z-Lyte FRET kinase assay, ROCK2
Format: biochemical
Details: values in nM
PROPERTY_MEASURED: IC50 (nM)

                                   compound  readout_value
0  O=C(Nc1ccc(-c2ccncc2)cc1)N[C@@H](CO)c1ccccc1           7520
1  O=C(Nc1nc(-c2ccncc2)cs1)C1COc2ccccc2O1 (centres unmarked) [CID5056270, reference compound]           0.56

###

Target: ROCK1 (Homo sapiens (Human))
Sequence (Q13464 whole entry): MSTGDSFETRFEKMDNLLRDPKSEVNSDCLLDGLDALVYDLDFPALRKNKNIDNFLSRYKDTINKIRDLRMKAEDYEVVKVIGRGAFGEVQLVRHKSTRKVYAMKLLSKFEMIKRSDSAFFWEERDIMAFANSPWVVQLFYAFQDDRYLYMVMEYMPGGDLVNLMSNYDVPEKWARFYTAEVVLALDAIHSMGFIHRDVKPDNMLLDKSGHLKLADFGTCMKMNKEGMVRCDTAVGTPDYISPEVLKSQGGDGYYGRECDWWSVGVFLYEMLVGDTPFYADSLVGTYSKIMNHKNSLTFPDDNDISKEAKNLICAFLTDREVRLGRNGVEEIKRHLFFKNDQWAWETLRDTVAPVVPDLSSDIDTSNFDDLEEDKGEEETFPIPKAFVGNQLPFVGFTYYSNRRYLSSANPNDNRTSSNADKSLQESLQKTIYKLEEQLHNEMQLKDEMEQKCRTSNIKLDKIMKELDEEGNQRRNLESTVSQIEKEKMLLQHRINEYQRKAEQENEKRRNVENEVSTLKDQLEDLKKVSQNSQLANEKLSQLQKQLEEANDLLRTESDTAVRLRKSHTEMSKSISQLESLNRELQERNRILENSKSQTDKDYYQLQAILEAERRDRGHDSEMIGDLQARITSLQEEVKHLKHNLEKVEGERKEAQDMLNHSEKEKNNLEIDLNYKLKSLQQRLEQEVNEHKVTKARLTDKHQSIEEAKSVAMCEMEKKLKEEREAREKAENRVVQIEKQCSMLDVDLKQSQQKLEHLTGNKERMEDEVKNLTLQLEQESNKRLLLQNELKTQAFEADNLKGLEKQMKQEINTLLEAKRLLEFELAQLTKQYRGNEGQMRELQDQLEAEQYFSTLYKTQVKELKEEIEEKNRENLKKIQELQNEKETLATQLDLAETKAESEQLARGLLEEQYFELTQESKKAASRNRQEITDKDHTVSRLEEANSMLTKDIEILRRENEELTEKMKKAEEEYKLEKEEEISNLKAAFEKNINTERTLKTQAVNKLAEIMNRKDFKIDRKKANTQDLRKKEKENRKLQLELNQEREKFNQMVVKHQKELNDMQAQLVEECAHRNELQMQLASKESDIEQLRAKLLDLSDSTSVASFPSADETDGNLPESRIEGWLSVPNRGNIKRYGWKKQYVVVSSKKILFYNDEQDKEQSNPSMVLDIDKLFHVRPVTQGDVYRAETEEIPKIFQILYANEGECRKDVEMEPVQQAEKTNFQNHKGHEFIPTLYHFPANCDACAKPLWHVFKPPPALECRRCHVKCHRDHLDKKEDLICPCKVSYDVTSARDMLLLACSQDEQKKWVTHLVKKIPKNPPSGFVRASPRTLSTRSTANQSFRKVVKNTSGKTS
Test: Z-Lyte FRET kinase assay, ROCK1
Format: biochemical
Conditions: values in nM
PROPERTY_MEASURED: IC50

In [3]: df
Out[3]:
                                   compound  property_measured  readout_value
0  O=C(Nc1nc(-c2ccncc2)cs1)C1COc2ccccc2O1 (stereo not shown) [CID5056270, reference compound]               IC50          13 nM

###

Target: ROCK1 (Homo sapiens (Human))
Test: Z-Lyte FRET kinase assay, ROCK1
Assay type: biochemical
Details: triplicate experiments
PROPERTY_MEASURED: log10(IC50) (log10 of the value in µM)

>>> df
                                   molecule  readout_value
0           O=C(Nc1ccccc1)Nc1ccc2[nH]ncc2c1           2.20
1       O=C(NCc1ccccc1)Nc1ccc(-c2ccncc2)cc1           0.06
2  O=C(Nc1ccc2[nH]ncc2c1)N[C@H](CO)Cc1ccccc1           0.66
3  O=C(Nc1ccc(-c2ccncc2)cc1)N[C@@H](CO)Cc1ccccc1           0.15
4  O=C(Nc1ccncc1)c1cnccc1Cl [Compound 4, 4-Chloro-N-(pyridin-4-yl)nicotinamide]           1.86
5      CN(CCc1ccccc1)C(=O)Nc1ccc2[nH]ncc2c1           1.33
6        O=C(NCCCc1ccccc1)Nc1ccc2[nH]ncc2c1           0.39
7  CC(=O)Nc1ccc2[nH]ncc2c1 [N-(1H-indazole-5-yl)acetamide]           1.81
8  O=C(Nc1ccc(-c2ccncc2)cc1)N[C@@H](CO)c1ccccc1           0.95

###

Target: ROCK1 (Homo sapiens (Human))
Test: Z-Lyte FRET kinase assay, ROCK1
Type: biochemical
Conditions: triplicate experiments
Threshold 10 µM. IC50 below it: yes (1). IC50 at it or above: no (0).

>>> df
                                   compound                  study_system    class
0  O=C(Nc1ccncc1)c1cccnc1 [Compound 3, N-(Pyridin-4-yl)nicotinamide]  ROCK1 (Homo sapiens (Human))   no (0)
1  COc1ccc(CCNC(=O)Nc2ccc3[nH]ncc3c2)cc1 [Compound 16]  ROCK1 (Homo sapiens (Human))  yes (1)
2  CN(C)C(=O)Nc1ccc2[nH]ncc2c1 [Compound 10, 3-(1H-Indazol-5-yl)-1,1-dimethylurea]  ROCK1 (Homo sapiens (Human))   no (0)
3  O=C(NCC(O)c1ccccc1)Nc1ccc2[nH]ncc2c1 (stereo not shown) [Compound 15]  ROCK1 (Homo sapiens (Human))  yes (1)
4  O=C(NCCc1ccc(Cl)cc1)Nc1ccc2[nH]ncc2c1 [Compound 17]  ROCK1 (Homo sapiens (Human))  yes (1)
5  O=C(NCc1ccccc1)Nc1ccc2[nH]ncc2c1 [Compound 12, 1-Benzyl-3-(1H-indazol-5-yl)urea]  ROCK1 (Homo sapiens (Human))   no (0)
6  O=C(Nc1ccc(-c2ccncc2)cc1)N[C@H](CO)Cc1ccccc1 [Compound 27]  ROCK1 (Homo sapiens (Human))   no (0)
7  O=C(NCCc1ccccc1)Nc1ccc(-c2ccncc2)cc1 [Compound 25]  ROCK1 (Homo sapiens (Human))  yes (1)
8  O=C(Nc1ccncc1)c1cncc(Br)c1 [Compound 5, 5-Bromo-N-(pyridin-4-yl)nicotinamide]  ROCK1 (Homo sapiens (Human))   no (0)
9  O=C(Nc1ccc(-c2ccncc2)cc1)N[C@H](CO)c1ccccc1 [Compound 24]  ROCK1 (Homo sapiens (Human))  yes (1)

###

Molecular target: ROCK2 (Homo sapiens (Human))
Experiment: Z-Lyte FRET kinase assay, ROCK2
Type: biochemical
Settings: triplicate experiments
pIC50: −log10 of the molar value.
PROPERTY_MEASURED: pIC50

>>> print(df.to_string())
                                    molecule                  study_system  property_measured  readout_value
 0  O=C(Nc1ccncc1)c1cccnc1 [Compound 3, N-(Pyridin-4-yl)nicotinamide]  ROCK2 (Homo sapiens (Human))              pIC50           4.25
 1  O=C(Nc1ccc(-c2ccncc2)cc1)N[C@@H](CO)Cc1ccccc1  ROCK2 (Homo sapiens (Human))              pIC50           5.27
 2      O=C(NCCc1ccccc1)Nc1ccc(-c2ccncc2)cc1  ROCK2 (Homo sapiens (Human))              pIC50           4.70
 3      CN(CCc1ccccc1)C(=O)Nc1ccc2[nH]ncc2c1  ROCK2 (Homo sapiens (Human))              pIC50           5.12
 4  O=C(Nc1ccncc1)c1cncc(Br)c1 [Compound 5, 5-Bromo-N-(pyridin-4-yl)nicotinamide]  ROCK2 (Homo sapiens (Human))              pIC50           3.45
 5  O=C(Nc1ccc2[nH]ncc2c1)N[C@H](CO)Cc1ccccc1  ROCK2 (Homo sapiens (Human))              pIC50           5.64
 6          O=C(NCc1ccccc1)Nc1ccc2[nH]ncc2c1  ROCK2 (Homo sapiens (Human))              pIC50           5.26
 7  O=C(Nc1ccc(-c2ccncc2)cc1)N[C@H](CO)Cc1ccccc1  ROCK2 (Homo sapiens (Human))              pIC50           4.48
 8     COc1ccc(CCNC(=O)Nc2ccc3[nH]ncc3c2)cc1  ROCK2 (Homo sapiens (Human))              pIC50           6.10
 9  O=C(Nc1ccc(-c2ccncc2)cc1)N[C@H](CO)c1ccccc1  ROCK2 (Homo sapiens (Human))              pIC50           7.00
10  O=C(Nc1ccncc1)c1cnccc1Cl [Compound 4, 4-Chloro-N-(pyridin-4-yl)nicotinamide]  ROCK2 (Homo sapiens (Human))              pIC50           3.65
11       O=C(NCc1ccccc1)Nc1ccc(-c2ccncc2)cc1  ROCK2 (Homo sapiens (Human))              pIC50           6.59
12  CC(=O)Nc1ccc2[nH]ncc2c1 [N-(1H-indazole-5-yl)acetamide]  ROCK2 (Homo sapiens (Human))              pIC50           4.40
13     O=C(NCCc1ccc(Cl)cc1)Nc1ccc2[nH]ncc2c1  ROCK2 (Homo sapiens (Human))              pIC50           5.96
14  O=C(Nc1ccc(-c2ccncc2)cc1)N[C@@H](CO)c1ccccc1  ROCK2 (Homo sapiens (Human))              pIC50           5.10
15           O=C(Nc1ccccc1)Nc1ccc2[nH]ncc2c1  ROCK2 (Homo sapiens (Human))              pIC50           4.21
16        O=C(NCCCc1ccccc1)Nc1ccc2[nH]ncc2c1  ROCK2 (Homo sapiens (Human))              pIC50           5.97
17               CN(C)C(=O)Nc1ccc2[nH]ncc2c1  ROCK2 (Homo sapiens (Human))              pIC50           4.44
